Hello, the source for this data is ChEMBL document CHEMBL1123964, in case you need it.

Biological target: Gonadotropin-releasing hormone receptor (Rattus norvegicus) (UniProt P30969)
Sequence (whole entry): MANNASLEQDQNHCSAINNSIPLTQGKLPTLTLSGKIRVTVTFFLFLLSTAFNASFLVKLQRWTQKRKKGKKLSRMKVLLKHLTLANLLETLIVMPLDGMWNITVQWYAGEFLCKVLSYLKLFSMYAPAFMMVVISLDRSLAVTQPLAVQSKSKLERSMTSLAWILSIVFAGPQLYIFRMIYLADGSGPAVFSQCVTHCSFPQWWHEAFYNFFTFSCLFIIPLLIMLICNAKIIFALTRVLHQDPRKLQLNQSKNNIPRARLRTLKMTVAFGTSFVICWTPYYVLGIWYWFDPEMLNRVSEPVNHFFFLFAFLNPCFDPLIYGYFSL
Experiment: Antiovulatory activity on proestrus was measured by administering as a solution in 50% propylene glycol / 0.9% saline in rat
Type: functional
parameter: ED50 (ug injection-1)
The answer should be written as a number, with no unit following it.

- smiles input: "CCCNC(=NCCCC[C@@H](NC(=O)[C@H](Cc1ccc(O)cc1)NC(=O)[C@H](CO)NC(=O)[C@@H](Cc1c[nH]c2ccccc12)NC(=O)[C@@H](Cc1ccc(Cl)cc1)NC(=O)[C@@H](Cc1ccc(Cl)cc1)NC(C)=O)C(=O)N[C@@H](CC(C)C)C(=O)N[C@@H](CCCN=C(N)N)C(=O)N1CCC[C@H]1C(=O)NCC(N)=O)NCCC"
  tgt: "Gonadotropin-releasing hormone receptor (Rattus norvegicus) (UniProt P30969)"
  endpoint value: 2.6

Alright, here's another molecule for you.
Find ED50 (ug injection-1) (Gonadotropin-releasing hormone receptor (Rattus norvegicus) (UniProt P30969)) for the entry `CNC(=NCCCC[C@@H](NC(=O)[C@H](Cc1ccc(O)cc1)NC(=O)[C@H](CO)NC(=O)[C@@H](Cc1c[nH]c2ccccc12)NC(=O)[C@@H](Cc1ccc(Cl)cc1)NC(=O)[C@@H](Cc1ccc(Cl)cc1)NC(C)=O)C(=O)N[C@@H](CC(C)C)C(=O)N[C@@H](CCCN=C(N)N)C(=O)N1CCC[C@H]1C(=O)N[C@H](C)C(N)=O)NC`
1.6
